Origin of measurements: a melting point compilation (Tetko et al.; mined from patent text by program, amines drawn as free bases though some values may be those of a salt)

endpoint: melting point

Query: Fill blank: measured melting point of the compound C=CCNC(=O)NC(CCC)(CCC)CCC is ____.
Response: 66 °C

Continuing:
Query: Fill blank: measured melting point of the compound O=C(Cc1ccc(OC2Cc3ccccc3C2)cc1)NC1(C(=O)O)Cc2ccc(-c3ccc(Cl)cc3)cc2C1 (stereo unspecified) is ____.
Response: 233 to 234 °C

Query: Fill blank: measured melting point of the compound Cc1ccccc1C(Oc1cc(OCc2ccncc2)ccc1C#N)c1nnn[nH]1 (racemic) is ____.
Response: 132 to 133 °C

Query: Fill blank: measured melting point of the compound COC(=O)CCc1ccc(NC(=O)NNC=O)cc1 is ____.
Response: 146 to 148 °C

Query: Fill blank: measured melting point of the compound COc1ccc(-c2[nH]nc3c2C(=O)c2c(NC(=O)Cc4cc(OC)ccc4OC)cccc2-3)cc1 is ____.
Response: 226 °C

Query: Fill blank: measured melting point of the compound COc1ccc2c(c1)c1c3c(c(-c4ccccc4)cc1n2CCCO)C(=O)NC3=O is ____.
Response: 241 to 243 °C

Query: Fill blank: measured melting point of the compound Cc1ccc(C(=O)c2[nH]c3ccc(Cl)cc3c2CC(=O)O)nc1 is ____.
Response: 247 to 248 °C

Query: Fill blank: measured melting point of the compound CC(=O)NC1(c2ccc(CN3CCN(c4ccc(F)cc4)CC3)cc2)CC1 is ____.
Response: 124 to 126 °C

Query: Fill blank: measured melting point of the compound CCc1cc(COc2nn(Cc3ccccc3)cc2CO)ccc1OCc1nc(-c2ccco2)oc1C is ____.
Response: 116 to 117 °C

Query: Fill blank: measured melting point of the compound CC(=O)N[C@H]1CC[C@H](CCN2CCN(c3nccc4c3OCC4)CC2)CC1 is ____.
Response: 195 °C

Query: Fill blank: measured melting point of the compound CCOC(=O)C=C(C(=O)OCC)c1ccc(C(Br)Br)cc1 is ____.
Response: 89 to 92.5 °C

----------
endpoint: melting point

Query: Fill blank: measured melting point of the compound N#Cc1cc(N)ccc1NC(=O)c1ccc(N)cc1 is ____.
Response: 242 to 244 °C

Continuing:
Query: Fill blank: measured melting point of the compound O=[N+]([O-])c1cc(Cl)c2cccnc2c1O is ____.
Response: 201 to 202 °C

Query: Fill blank: measured melting point of the compound NS(=O)(=O)c1cc2c(s1)SCCCC2=O is ____.
Response: 185 to 186 °C

Query: Fill blank: measured melting point of the compound Cc1cc(C)nc(N(C=S)c2ccccc2)n1 is ____.
Response: 161 to 165 °C

----------
endpoint: melting point

Query: Fill blank: measured melting point of the compound N#Cc1ccc(NS(=O)(=O)c2ccc(Cl)cc2)cc1 is ____.
Response: 182 to 184 °C

Query: Fill blank: measured melting point of the compound CN(C)C(=O)Nc1cc(Br)ccc1N1CCc2ccccc21 is ____.
Response: 119 to 121 °C

Query: Fill blank: measured melting point of the compound OCC#Cc1cnc(Cl)nc1NC1CCCC1 is ____.
Response: 162 to 163 °C

Query: Fill blank: measured melting point of the compound COc1ccc(C=C(C(=O)C2CC2)C(=O)C2CC2)cc1 is ____.
Response: 60.5 to 61.5 °C

Query: Fill blank: measured melting point of the compound Cc1ccc(-c2ccc(C(=O)Nc3cc4ncc(CN5CCCC5)cc4cc3F)c(F)c2)cc1 is ____.
Response: 179 to 181 °C

Continuing:
Query: Fill blank: measured melting point of the compound Cc1ccc(F)c2c1N(C(c1ccccc1)c1ccccc1)C(=O)C21COc2cc3c(cc21)CCO3 (configuration not stated) is ____.
Response: 81 to 82 °C

Query: Fill blank: measured melting point of the compound C/C(=C(\C#N)C(N)=S)N1CCCCC1 is ____.
Response: 161 to 166 °C

----------
// reported melting point for each item listed

Query: Fill blank: measured melting point of the molecule COc1ccc(CSCC2NC(=O)C2NC(=O)OC(C)(C)C)cc1 (configuration not stated) is ____.
Response: 120 to 123 °C

Query: Fill blank: measured melting point of the molecule COC(=O)c1cc2cc(OC(F)F)ccc2nc1C(=O)OC is ____.
Response: 84 to 85 °C

Query: Fill blank: measured melting point of the molecule CCCn1cnc2c1c(=O)n(CC(C)(O)C#CCN(CC)CC)c(=O)n2C (configuration not stated) is ____.
Response: 109 °C

Query: Fill blank: measured melting point of the molecule CCOc1ccc(C2=NN(C3CCCCCC3)C(=O)[C@H]3CC=CC[C@@H]23)cc1OCC (relative stereo) is ____.
Response: 92 to 93 °C

Query: Fill blank: measured melting point of the molecule O=C(O)Cn1cc(Cc2nc3c(F)c(F)cc(F)c3s2)c2ccc(F)cc21 is ____.
Response: 200 to 203 °C

Continuing:
Query: Fill blank: measured melting point of the molecule O=C(NNc1ccccc1)c1nc(Cl)c(Cl)[nH]1 is ____.
Response: 229 to 230 °C

Query: Fill blank: measured melting point of the molecule CCN1C(=O)CCCc2cc(Nc3ncc(Cl)c(Nc4c(F)cccc4C(=O)NC)n3)c(OC)cc21 is ____.
Response: 254 to 256 °C

Query: Fill blank: measured melting point of the molecule COc1cc(Cl)cc(CC(O)CO)c1OCc1ccccc1 (configuration not stated) is ____.
Response: 65 to 68 °C

Query: Fill blank: measured melting point of the molecule N#Cc1cccc(NC(=O)NCc2cccc3c2CN(C2CCC(=O)NC2=O)C3=O)c1 (configuration not stated) is ____.
Response: 330 to 333 °C

Query: Fill blank: measured melting point of the molecule Cc1ccc(NC(=O)c2ccccc2N)cc1C(F)(F)F is ____.
Response: 138 to 140 °C

Query: Fill blank: measured melting point of the molecule O=[N+]([O-])c1ccc(NCCCn2ccnc2)c(F)c1 is ____.
Response: 144 °C

Query: Fill blank: measured melting point of the molecule CCOC(=O)C(Cl)=Cc1cc([N+](=O)[O-])ccc1Cl is ____.
Response: 91 °C

----------
endpoint: melting point

Query: Fill blank: measured melting point of the compound Cc1c(Cc2ccc([N+](=O)[O-])cc2)c(=O)oc2cc(OCC#N)cc(OCC#N)c12 is ____.
Response: 178 to 185 °C

Query: Fill blank: measured melting point of the compound CN1C(=O)C(C)(C)N=C(c2ccccc2F)c2cc([N+](=O)[O-])cc(Br)c21 is ____.
Response: 228 °C

Query: Fill blank: measured melting point of the compound COc1ccc(-c2c(-c3ccc(S(N)(=O)=O)cc3)[nH]c3ccccc23)cc1 is ____.
Response: 280 to 282 °C

Query: Fill blank: measured melting point of the compound Cc1c[nH]c(-c2ccc(OCC(O)CO)cc2)n1 (configuration not stated) is ____.
Response: 196 to 199 °C

Query: Fill blank: measured melting point of the compound COc1ccc2c(c1)c(-c1cc3cc(-c4ccccc4)cnc3[nH]1)cn2C is ____.
Response: 240 to 242 °C

Query: Fill blank: measured melting point of the compound FC(F)(Br)C(F)(F)Oc1ccc(C2(c3ccc(OC(F)(F)C(F)(F)Br)cc3)c3ccccc3-c3ccccc32)cc1 is ____.
Response: 157 to 158 °C

Query: Fill blank: measured melting point of the compound CC(=O)N[C@@H](C)c1ccc(CCl)cc1 is ____.
Response: 114 to 116 °C

Query: Fill blank: measured melting point of the compound Cc1ccc(OCC#CI)cn1 is ____.
Response: 155 to 157 °C

Query: Fill blank: measured melting point of the compound CNC(=NC#N)NCCSCc1noc(NC(=N)N)n1 is ____.
Response: 185 to 188 °C

Query: Fill blank: measured melting point of the compound CC(=Cc1ccc(F)c(F)c1)C(=O)O is ____.
Response: 122 to 125 °C

Query: Fill blank: measured melting point of the compound CCCc1c(OCCCCOc2cccc(Sc3ccc(C(=O)O)cc3)c2)ccc(C(C)=O)c1O is ____.
Response: 100 to 102 °C

Query: Fill blank: measured melting point of the compound CCN(CC)C(=O)n1cnc(S(=O)(=O)CC2CCCCCC2)n1 is ____.
Response: 46 to 51 °C

Query: Fill blank: measured melting point of the compound CNC(=O)n1cc(C(N)=O)nc1C(C)(C)C is ____.
Response: 145 to 147 °C

Query: Fill blank: measured melting point of the compound COc1ccc(C2(C)C(=O)Nc3cc(N4CCN(C)CC4)cc(Cl)c3C2=O)cc1 (configuration not stated) is ____.
Response: 201 to 202 °C

Query: Fill blank: measured melting point of the compound COc1c(Cl)ccc(-c2cc(N)c(Cl)c(C(=O)N(C)O)n2)c1F is ____.
Response: 211 to 214 °C

Query: Fill blank: measured melting point of the compound C=C1CC2(CN3CCC2CC3)SC1C (configuration not stated) is ____.
Response: 164 to 168 °C

Query: Fill blank: measured melting point of the compound COc1ccc(-c2ccnc3c(C(N)=O)ncn23)cc1OC is ____.
Response: 262 to 265 °C

Query: Fill blank: measured melting point of the compound COc1ccccc1COc1ccc(S(=O)(=O)c2ccc(C)nc2Nc2cc(OC)c(OC)cc2C)cc1 is ____.
Response: 62 to 66 °C

Query: Fill blank: measured melting point of the compound CCOC(=O)c1csc(NCc2ccccc2)n1 is ____.
Response: 132 to 136 °C

Query: Fill blank: measured melting point of the compound Cc1oc(-c2ccccc2)nc1CCOc1ccc(N)cn1 is ____.
Response: 107 to 108 °C

Query: Fill blank: measured melting point of the compound CCCCCCCCCCCCc1ccc(C(OC(C)=O)C(COC(C)=O)NC(C)=O)s1 (configuration not stated) is ____.
Response: 105 to 107 °C

Query: Fill blank: measured melting point of the compound CC(=O)N1CCc2cc(C(=O)CCCCCBr)ccc21 is ____.
Response: 110 to 111 °C
